These data points were gathered from paper PMC4107104.

- targetOrTestSystem: recombinant human HDAC 10 (Homo sapiens, UniProt Q969S8)
- Sequence (Q969S8 whole entry): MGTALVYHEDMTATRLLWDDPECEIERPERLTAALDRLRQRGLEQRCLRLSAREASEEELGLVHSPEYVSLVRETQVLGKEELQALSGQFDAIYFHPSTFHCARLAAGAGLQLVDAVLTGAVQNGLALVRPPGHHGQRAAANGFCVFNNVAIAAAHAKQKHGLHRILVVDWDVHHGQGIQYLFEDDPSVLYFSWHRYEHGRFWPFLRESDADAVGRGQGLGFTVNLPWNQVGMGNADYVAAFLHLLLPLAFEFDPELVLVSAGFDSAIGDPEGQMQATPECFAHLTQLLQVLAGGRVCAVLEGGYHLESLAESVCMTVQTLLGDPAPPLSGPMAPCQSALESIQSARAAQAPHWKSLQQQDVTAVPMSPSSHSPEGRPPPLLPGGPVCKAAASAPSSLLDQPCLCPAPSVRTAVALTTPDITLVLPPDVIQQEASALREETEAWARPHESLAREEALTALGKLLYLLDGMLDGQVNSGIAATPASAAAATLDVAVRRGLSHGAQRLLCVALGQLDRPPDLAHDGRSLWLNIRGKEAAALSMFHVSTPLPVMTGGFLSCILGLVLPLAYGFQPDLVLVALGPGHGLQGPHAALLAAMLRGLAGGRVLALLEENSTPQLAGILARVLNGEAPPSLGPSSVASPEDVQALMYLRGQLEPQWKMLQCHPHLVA
- assayProcedure: HDAC enzyme inhibition assay, HDAC10
- protocolConditions: read-out: In vitro IC50, HD10
pIC50: −log10 of the molar value.

>  <compound>
CCCC(=O)[O-].[Na+] [NaB, sodium butyrate]

>  <pIC50>
3.27

$$$$

----------
- targetOrTestSystem: recombinant human HDAC 2 (Homo sapiens)
- Sequence (Q92769 whole entry): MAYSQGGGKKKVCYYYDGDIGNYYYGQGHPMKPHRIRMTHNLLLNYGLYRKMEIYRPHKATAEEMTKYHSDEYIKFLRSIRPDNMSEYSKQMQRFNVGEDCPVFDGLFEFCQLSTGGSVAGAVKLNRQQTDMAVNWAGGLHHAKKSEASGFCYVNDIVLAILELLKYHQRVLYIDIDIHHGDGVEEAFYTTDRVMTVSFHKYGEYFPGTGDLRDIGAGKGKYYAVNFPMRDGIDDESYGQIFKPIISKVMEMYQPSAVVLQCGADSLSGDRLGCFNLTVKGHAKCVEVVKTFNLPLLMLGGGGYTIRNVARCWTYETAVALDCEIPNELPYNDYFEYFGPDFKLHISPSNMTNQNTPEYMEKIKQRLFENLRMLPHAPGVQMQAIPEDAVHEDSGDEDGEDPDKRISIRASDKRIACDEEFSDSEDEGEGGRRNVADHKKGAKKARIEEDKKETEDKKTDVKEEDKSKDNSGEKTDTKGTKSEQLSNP
- assayProcedure: HDAC enzyme inhibition assay, HDAC2
- protocolConditions: read-out: In vitro IC50, HD2
measurementLabel: IC50 (µM)

>  <compound>
CCCC(=O)[O-].[Na+] [NaB, sodium butyrate]

>  <value>
118

$$$$
